Please provide measured Ki for the entries that follow.
target: Cannabinoid receptor 2 (Homo sapiens); experiment: Displacement of [3H]CP-55,940 from recombinant human Cb2 receptor expressed in HEK293 cells
Sequence (P34972 whole entry): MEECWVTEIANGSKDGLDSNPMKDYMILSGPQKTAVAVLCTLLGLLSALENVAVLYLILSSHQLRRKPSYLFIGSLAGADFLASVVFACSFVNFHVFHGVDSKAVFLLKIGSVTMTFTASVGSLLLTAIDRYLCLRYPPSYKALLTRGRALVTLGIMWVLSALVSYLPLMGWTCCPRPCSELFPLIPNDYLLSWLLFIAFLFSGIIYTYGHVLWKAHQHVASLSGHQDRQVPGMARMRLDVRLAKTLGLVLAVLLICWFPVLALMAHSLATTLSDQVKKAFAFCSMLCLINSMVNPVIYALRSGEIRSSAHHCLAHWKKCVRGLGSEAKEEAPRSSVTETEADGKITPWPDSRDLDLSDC
One number for each entry, in nM.

Previously resolved entries follow.
CC1=CC[C@H]2[C@H](C1)c1c(O)cc(/C(C)=N/OCCCCF)cc1OC2(C)C
9.7
CC1=CC[C@H]2[C@H](C1)c1c(O)cc(/C(C)=N/OCCOc3ccccc3)cc1OC2(C)C
6.2

Proceed to the following item.
[ask] // lookup Ki for CC1=CC[C@H]2[C@H](C1)c1c(O)cc(/C(C)=N/OCCCc3ccccc3)cc1OC2(C)C
[reply] 2.7

----------
assay: Half life in simulated gastric fluid; assay type: ADME
metric-name: half-life

[ask] I have this compound here, CC1=CC[C@H]2[C@H](C1)c1c(O)cc(/C(C)=N/OCCCC#N)cc1OC2(C)C , and I need its recorded half-life.
[reply] > 1 h

----------
target: UniProt P34972; test: Agonist activity at recombinant human Cb2 receptor expressed in HEK293 cells assessed as inhibition of forskolin-stimulated cAMP levels relative to CP-55940; format: functional, cell-based
metric-name: Emax (%)
Give bare numbers, in %.

Worked cases, Emax given:
CC1=CC[C@H]2[C@H](C1)c1c(O)cc(/C(C)=N/OCCCc3ccccc3)cc1OC2(C)C
35
CC1=CC[C@H]2[C@H](C1)c1c(O)cc(/C(C)=N\OCCCc3ccccc3)cc1OC2(C)C
98
CCCC(C)O/N=C(\C)c1cc(O)c2c(c1)OC(C)(C)[C@H]1CC=C(C)C[C@H]21 (mixture of isomers)
411
CCCCO/N=C(\C)c1cc(O)c2c(c1)OC(C)(C)[C@H]1CC=C(C)C[C@H]21
116
CCCC(C)O/N=C(/C)c1cc(O)c2c(c1)OC(C)(C)[C@H]1CC=C(C)C[C@H]21 (mixture of isomers)
260

The record that follows has no Emax shown yet.
[ask] Please look up its Emax: CC1=CC[C@H]2[C@H](C1)c1c(O)cc(/C(C)=N/OCCCC#N)cc1OC2(C)C
[reply] 47

----------
test: Tmax in CD1 mouse at 10 mg/kg, po; type: ADME, organism-based; settings: in vivo
metric-name: Tmax (h)
One number for each entry, in h.

[ask] # lookup: Tmax of CC1=CC[C@H]2[C@H](C1)c1c(O)cc(/C(C)=N/OCCCC#N)cc1OC2(C)C
[reply] 1

----------
test: Half life in mouse plasma; format: ADME, cell-free
metric-name: half-life

[ask] Please look up its half-life: CC1=CC[C@H]2[C@H](C1)c1c(O)cc(/C(C)=N/OCCCC#N)cc1OC2(C)C
[reply] > 1 h

----------
Assignment: determine reported Ki for the given molecules.
target: Cannabinoid receptor 2 (Mus musculus); assay: Displacement of [3H]CP-55,940 from recombinant mouse Cb2 receptor expressed in HEK293 cells
Sequence (P47936 whole entry): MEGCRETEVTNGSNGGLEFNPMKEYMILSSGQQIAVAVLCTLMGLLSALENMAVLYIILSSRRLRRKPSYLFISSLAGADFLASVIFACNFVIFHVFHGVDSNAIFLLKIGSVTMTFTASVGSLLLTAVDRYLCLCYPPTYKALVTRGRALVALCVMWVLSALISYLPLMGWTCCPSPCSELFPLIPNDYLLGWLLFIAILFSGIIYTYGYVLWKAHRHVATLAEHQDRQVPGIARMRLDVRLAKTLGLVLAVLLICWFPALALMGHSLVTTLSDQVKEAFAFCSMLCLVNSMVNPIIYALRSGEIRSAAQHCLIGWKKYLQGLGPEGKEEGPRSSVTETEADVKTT
One number for each entry, in nM.

CCCCCc1cc(O)c2c(c1)OC(C)(C)[C@H]1CC=C(C)C[C@H]21
40.4
CC1=CC[C@H]2[C@H](C1)c1c(O)cc(/C(C)=N/OCCCc3ccccc3)cc1OC2(C)C
3.8
CC1=CC[C@H]2[C@H](C1)c1c(O)cc(/C(C)=N/OCCCCF)cc1OC2(C)C
2.5
CC1=CC[C@H]2[C@H](C1)c1c(O)cc(/C(C)=N/OCCOc3ccccc3)cc1OC2(C)C
3.7
CC1=CC[C@H]2[C@H](C1)c1c(O)cc(/C(C)=N/OCCCC#N)cc1OC2(C)C
2.6
CCO/N=C(\C)c1cc(O)c2c(c1)OC(C)(C)[C@H]1CC=C(C)C[C@H]21
74.8
CC1=CC[C@H]2[C@H](C1)c1c(O)cc(/C(C)=N/OCCCn3ccnc3)cc1OC2(C)C
1.5

[ask] What does the record list as Ki for CC1=CC[C@H]2[C@H](C1)c1c(O)cc(/C(C)=N/OCCN3CCOCC3)cc1OC2(C)C ?
[reply] 1.8
